meta.source: paper PMC9851200

# System: endogenous TFE3
# PROTOCOL: TFE3 nuclear translocation, immunocytochemistry high-content imaging
# Assay type: cell-based
# TEST CONDITIONS: PKIS2 primary screening
QUANTITY KIND: TFE3 % (%)
Give bare numbers, in %.

In the examples that follow, each entry is paired with its recorded TFE3 %.
# MOLECULE, TFE3 % (%)
rows = [
    ("Cc1ccc(Nc2ccnc(Nc3ccc4c(c3)CS(=O)(=O)C4)n2)cc1O", 18.94),
    ("O=C(O)C(F)(F)F.O=c1[nH]ccc2nc(N[C@@H]3CCNC3)nc(Nc3cc(Cl)cc(Cl)c3)c12 [UNC10225257A]", 8.28),
    ("C[C@H]1CC[C@@H](C(=O)Nc2ccccc2)CN1c1cc(-c2ccc3c(N)n[nH]c3c2)nc(N)n1", 11.00),
    ("COc1ccc(-c2nc3n(c2-c2ccncc2)CCC3)cc1 [UNC10225334A]", 11.25),
    ("Cc1cccc(-c2nc(Nc3cccc(C(N)=O)c3)c3ccccc3n2)n1", 17.52),
    ("Cc1ccc(-c2nc(Nc3ccncc3)c3ccccc3n2)s1", 15.06),
]

For every item below, please supply its TFE3 %.
1. Cn1cc(-c2ccc3c(c2)CCN3C(=O)Cc2cccc(F)c2)c2c(N)ncnc21 [UNC10225297A]
2. COc1ccc(Nc2nccc(N3CCC(NC(=O)Nc4cc(C)ccc4C)C3)n2)cc1 (stereo not drawn)
3. Cl.Oc1cc(-c2nc(-c3ccccc3)[nH]c2-c2ccncc2)ccc1Cl [UNC10225128B]
4. C[C@@H]1CC[C@H](C(=O)NC2CCCCC2)CN1c1cc(-c2ccc3c(N)n[nH]c3c2)nc(N)n1
5. NS(=O)(=O)c1cccc(-c2ccc3ncc(N4CCOCC4)nc3c2)c1 [UNC10225400A]

1. 15.69
2. 9.28
3. 11.76
4. 16.02
5. 6.51

For every item below, please supply its TFE3 %.
1. O=C(Nc1ccccc1F)NC1CCN(c2ccnc(Nc3ccc(F)cc3)n2)C1 (stereo not drawn)
2. O=C(NCCCN1CCOCC1)c1cccc(Nc2nccc(Nc3ccc(Oc4ccccc4)cc3)n2)c1
3. O=C(NCC1CC1)c1ccc(-c2cc(C(=O)NC3CC3)ccc2F)cc1 [UNC10224986A]
4. CN1CCN(Cc2cccc(-c3ccc4c(Nc5ccc(Oc6ccccc6)cc5)ccnc4c3)c2)CC1 [UNC10225484A, reference compound]

1. 10.71
2. 16.30
3. 10.56
4. 42.01

For every item below, please supply its TFE3 %.
1. Cc1ccccc1CC(=O)N1CCc2cc(-c3cn(C)c4ncnc(N)c34)ccc21 [UNC10225254A]
2. CCc1nc(-c2cccc(N(C)S(=O)(=O)c3ccccc3)c2)c(-c2ccnc(Nc3ccc(N4CCN(C(C)=O)CC4)nc3)n2)s1 [UNC10225205A]

1: 19.37; 2: 16.25

For every item below, please supply its TFE3 %.
1. CCn1c(-c2nonc2N)nc2c(C#CC(C)(C)O)ncc(OCCCCN)c21.O=C(O)C(F)(F)F.O=C(O)C(F)(F)F [UNC10225393A]
2. Fc1ccc(-c2nn3cccc(F)c3c2-c2ccncc2)cc1 [UNC10225116A]
3. Cl.Cl.NCC(NC(=O)c1cc(-c2ccccc2)c(-c2ccnc3[nH]ccc23)s1)c1ccccc1 (stereo not drawn) [UNC10225466A]

[10.89, 11.01, 18.77]
